- TARGET: T1, DENV-2 nonstructural protein 1 (NS1), recombinant (dengue virus serotype 2 (DENV-2))
- T1 chain: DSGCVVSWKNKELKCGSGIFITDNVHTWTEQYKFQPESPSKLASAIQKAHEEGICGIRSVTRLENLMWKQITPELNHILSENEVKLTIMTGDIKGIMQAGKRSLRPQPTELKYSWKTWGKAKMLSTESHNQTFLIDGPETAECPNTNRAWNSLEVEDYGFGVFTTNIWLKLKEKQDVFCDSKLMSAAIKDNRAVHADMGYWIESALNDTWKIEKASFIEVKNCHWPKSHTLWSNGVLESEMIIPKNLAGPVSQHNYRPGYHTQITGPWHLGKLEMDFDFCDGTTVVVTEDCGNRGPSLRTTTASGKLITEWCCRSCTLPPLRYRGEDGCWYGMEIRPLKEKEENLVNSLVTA
- TEST_SUMMARY: SPR; sdAb immobilized
Labelling field: enter y if recorded koff is less than 0.0002 s⁻¹. Enter n if it equals or exceeds that cut-off.

Query :: Find out if reported koff for sdAb DC7 (VHH, source: E. coli Turner (DE3), pET22b, periplasmic, purified (Ni-Sepharose, SEC)) VHH: EVQLQASGGGSVQAGGSLRLSCAHSSITVPDYTIGWYRRAPGKGGEEVSLISMHGGRTWYAGSVKGRFAISRDSVKNTVYLQMNNLKPEDTDIYYCGGTTFGLAAAPNEYDSWGQGSQVTVSS is less than 0.0002 s⁻¹
Result :: y

Query :: Find out if reported koff for sdAb DD1 (VHH, source: E. coli Turner (DE3), pET22b, periplasmic, purified (Ni-Sepharose, SEC)) VHH: EVQLQASGGGLVQAGGSLRVSCAATGIAFASYAVAWYRQAPGKQREWVATVGGLGGTKYVDSVKGRFTISRDNAKNAVTLQMNSLKPEDTAVYYCAAVEWDDGHYYWDTWGQGTRVTVSA is less than 0.0002 s⁻¹
Result :: y

Query :: Find out if reported koff for sdAb DD5 (VHH, source: E. coli Turner (DE3), pET22b, periplasmic, purified (Ni-Sepharose, SEC)) VHH: EVQLQASGGGLVQAGGSLRLSCAASGRAFSSETMGWFRQAPGKEREFVAAIWRIGGSTYNTDYADSVKGRFAISADRAKNTVDLQMNTLKPEDTAVYYCAGKMRGRSVNLYDYDYWGQGTQVTVSS is less than 0.0002 s⁻¹
Result :: y

Query :: Find out if reported koff for sdAb DD7 (VHH, source: E. coli Turner (DE3), pET22b, periplasmic, purified (Ni-Sepharose, SEC)) VHH: EVQLVQSGGGSVQAGGSLRLSCAHSSITVPDYTIGWFRRAPGKGGEEVSLISMHGGRSWYAGSVKGRFAISRDSVKNTVYLQMNNLKPEDTDIYYCGGTTFGLAAAPNEYDSWGQGSQVTVSS is less than 0.0002 s⁻¹
Result :: n

Query :: Find out if reported koff for sdAb DD9 (VHH, source: E. coli Turner (DE3), pET22b, periplasmic, purified (Ni-Sepharose, SEC)) VHH: EVQLQASGGGLVQAGGSLRVSCAASGIAFTNYALAWYRQPPGKQREWVATVGVLGGTKYADSVKGRFAISRDNAKNTVILQMNSLKPVDTAVYFCAAVEWSNGRYYWDSWGQGTQVTVSA is less than 0.0002 s⁻¹
Result :: n
